# target.of.assay: T1, recombinant human CD70 (Flag-TNC-CD70) (human, UniProt P32970 39-193)
# T1 construct: extracellular domain; Captured by anti-Flag mAb in ELISA; as 'recombinant human CD70' immobilised on Biacore CM5 chips; TNC is for trimerisation; also called recombinant CD70; human recombinant CD70; not shown: Flag tag and TNC trimerisation domain
# T1 sequence (looked up): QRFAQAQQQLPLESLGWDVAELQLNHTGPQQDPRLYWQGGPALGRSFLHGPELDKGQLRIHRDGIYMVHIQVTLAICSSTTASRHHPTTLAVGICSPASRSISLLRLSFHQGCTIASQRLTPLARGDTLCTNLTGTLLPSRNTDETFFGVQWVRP
# test.name: Biacore; CD70 coated CM5 chip; Fab in periplasmic fraction
Overview of recorded koff for various binders

binder: 36D6 Fab (Fab, V domains shown, Germlined 27B3 Fab, periplasmic fraction) VH: EVQLVESGGGLVQPGGSLRLSCAASGFTFSVYYMNWVRQAPGKGLEWVSDINNEGGTTYYADSVKGRFTISRDNAKNTLYLQMNSLKPEDTALYYCVRDAGYSNHVPIFDSWGQGTTVTVSS VL: QTVVTQEPSLTVSPGGTVTLTCGLKSGSVTSTNFPTWYQQTPGQAPRLLIYNTNSRHSGVPDRFSGSILGNKAALTITGAQADDESDYFCALFISNPSVEFGGGTQLTVLG
koff [s⁻¹]: 0.00014
//
binder: 42D12 Fab (Fab, V domains shown, Germlined 27B3 Fab, periplasmic fraction) VH: EVQLVESGGGLVQPGGSLRLSCAASGFTFSVYYMNWVRQAPGKGLEWVSDINNEGGTTYYADSVKGRFTISRDNSKNTLYLQMNSLRAEDTAVYYCVRDAGYSNHVPIFDSWGQGTQVTVSS VL: QAVVTQEPSFSVSPGGTVTLTCGLTSGSVTSTNFPTWYQQTPGQAPRLLIYNTNTRHSGVPSRFSGSILGNKAALTITGAQADDEAEYFCALFISNPSVEFGGGTQLTVLG
koff [s⁻¹]: 0.00016
//
binder: 36A9 Fab (Fab, V domains shown, Germlined 27B3 Fab, periplasmic fraction) VH: EVQLVESGGGLVQPGGSLRLSCAASGFTFSVYYMNWVRQAPGKGLEWVSDINNEGGTTYYADSVKGRFTISRDNSKNTLTLQMNSLKPEDTAVYYCVRDAGYSNHVPIFDSWGQGTQVIVSS VL: QTVVTQEPSFSVSPGGTVTLTCGLKSGSVTSDNFPTWYQQTPGQAPRLLIYNTNTRHSGVPDRFSGSILGNKAALTITGAQADDESDYFCALFISNPSVEFGGGTQLTVLG
koff [s⁻¹]: 0.00013
//
binder: 53F1 Fab (Fab, V domains shown, Germlined 27B3 Fab, periplasmic fraction) VH: EVQLVESGGGLVQPGGSLRLSCAASGFTFSVYYMNWVRQAPGKGLEWVSDINNEGGTTYYADSVKGRFTISRDNAKNTLTLQMNSLKPEDTAVYYCVRDAGYSNHVPIFDSWGQGTQVTVAS VL: QAVVTQEPSFSVSPGGTVTLTCGLKSGSVTSDNFPTWYQQTPGQAPRLLIYNTNTRHSGVPDRFSGSILGNKAALTITGAQADDESDYFCALFISNPSVEFGGGTQLTVLG
koff [s⁻¹]: 0.00023
//
binder: 40F1 Fab (Fab, V domains shown, Germlined 27B3 Fab, periplasmic fraction) VH: EVQLVESGGGLVQPGGSLRLSCAASGFTFSVYYMNWVRQAPGKGLEWVSDINNEGGATYYADSVKGRFTISRDNSKNSLYLQMNSLRAEDTAVYYCARDAGYSNHVPIFDSWGQGTQVTVSS VL: QAVVTQEPSFSVSPGGTVTLTCGLKSGSVTSDNFPTWYQQTPGQAPRLLIYNTNTRHSGVPDRFSGSILGNKAALTITGAQADDEAEYFCALFISNPSVEFGGGTQLTVLG
koff [s⁻¹]: 0.00016
